Source of measurements: ChEMBL document CHEMBL5724914

Assay: The drug is tested on WLS-052 corresponding to human gut metagenome with ENA study accession number: PRJEB37062 and ENA sample accession number: ERS12561747 for biotransformation under anaerobic condition. The drug concentrations were measured over 9 timepoints collected between 0 and 24 hours of incubation by liquid-chromatography-coupled mass spectrometry (LC–MS); note: call rule not given here
Conditions: 2 µM
Quantity measured: Bacterial Biotransformation

A selection of reference data follows.
Compound	Bacterial Biotransformation
CN1CCC[C@@H]1CCO[C@](C)(c1ccccc1)c1ccc(Cl)cc1.O=C(O)/C=C/C(=O)O [CLEMASTINE FUMARATE]	Compound NOT metabolized
CN1CCN(C2=Nc3ccccc3Oc3ccc(Cl)cc32)CC1.O=C(O)CCC(=O)O [LOXAPINE SUCCINATE]	Compound NOT metabolized
COc1ccc2cc([C@H](C)C(=O)O)ccc2c1	Compound metabolized
CCOc1cc(CC(=O)N[C@@H](CC(C)C)c2ccccc2N2CCCCC2)ccc1C(=O)O [REPAGLINIDE]	Compound metabolized
CN(CCOc1ccc(CC2SC(=O)NC2=O)cc1)c1ccccn1.O=C(O)/C=C\C(=O)O (stereo not given) [ROSIGLITAZONE MALEATE]	Compound NOT metabolized

Consider the additional compound presented here.
IN: I'd like to know its Bacterial Biotransformation. The compound in question is CNCC[C@H](Oc1cccc2ccccc12)c1cccs1
OUT: Compound NOT metabolized

====

Conditions: human gut metagenome, 24 h, 2 µM
Quantity measured: Bacterial Biotransformation

// below: answered compounds
Compound	Result
c1ccc2[nH]c(-c3cscn3)nc2c1	Compound NOT metabolized
CN[C@H]1CC[C@@H](c2ccc(Cl)c(Cl)c2)c2ccccc21	Compound NOT metabolized
CCCCC(=O)O[C@]1(C(=O)CO)[C@@H](C)C[C@H]2[C@@H]3CCC4=CC(=O)C=C[C@]4(C)[C@@]3(F)[C@@H](O)C[C@@]21C [BETAMETHASONE VALERATE]	Compound NOT metabolized
Nc1nc(NC2CC2)c2ncn([C@H]3C=C[C@@H](CO)C3)c2n1.Nc1nc(NC2CC2)c2ncn([C@H]3C=C[C@@H](CO)C3)c2n1.O=S(=O)(O)O [ABACAVIR SULFATE]	Compound metabolized
OC(c1cc(C(F)(F)F)nc2c(C(F)(F)F)cccc12)C1CCCCN1 (configuration not stated)	Compound metabolized

IN: Query (compound): Br.CN1CCC[C@@H]1Cc1c[nH]c2ccc(CCS(=O)(=O)c3ccccc3)cc12 [ELETRIPTAN HYDROBROMIDE] ; field requested: Bacterial Biotransformation
OUT: Compound NOT metabolized

IN: Can you look up the measured Bacterial Biotransformation of C#C[C@]1(OC(C)=O)CC[C@H]2[C@@H]3CCC4=C[C@@H](OC(C)=O)CC[C@@H]4[C@H]3CC[C@@]21C [ETHYNODIOL DIACETATE] for me?
OUT: Compound metabolized

====

Assay: The drug is tested on Z-011 corresponding to mouse gut metagenome with ENA study accession number: PRJEB37062 and ENA sample accession number: ERS12561811 for biotransformation under anaerobic condition. The drug concentrations were measured over 9 timepoints collected between 0 and 24 hours of incubation by liquid-chromatography-coupled mass spectrometry (LC–MS)
Settings: 2 µM
Quantity measured: Bacterial Biotransformation

Molecule	Bacterial Biotransformation
CCCN(CCC)CCc1cccc2c1CC(=O)N2 [ROPINIROLE]	Compound NOT metabolized
CC1Cc2ccccc2N1NC(=O)c1ccc(Cl)c(S(N)(=O)=O)c1 (stereo not given) [INDAPAMIDE]	Compound NOT metabolized
CCS(=O)(=O)CCn1c([N+](=O)[O-])cnc1C [TINIDAZOLE]	Compound metabolized
CC#C[C@]1(O)CC[C@H]2[C@@H]3CCC4=CC(=O)CCC4=C3[C@@H](c3ccc(N(C)C)cc3)C[C@@]21C [MIFEPRISTONE]	Compound metabolized
CC(NC(C)(C)C)C(=O)c1cccc(Cl)c1 (stereo not given) [BUPROPION]	Compound NOT metabolized

IN: Quick one: Bacterial Biotransformation of CCN(C(C)=O)c1cccc(-c2ccnc3c(C#N)cnn23)c1 [ZALEPLON] ?
OUT: Compound NOT metabolized

IN: Quick check: Bacterial Biotransformation of CC(N)C12CC3CC(CC(C3)C1)C2 (stereo not given) [RIMANTADINE] ?
OUT: Compound NOT metabolized

IN: Could you tell me which Bacterial Biotransformation is on file for CCN(CC)CCNC(=O)c1ccc(NC(C)=O)cc1 [ACECAINIDE] ?
OUT: Compound NOT metabolized

IN: Please report the recorded Bacterial Biotransformation for CCOC(=O)[C@H](CCc1ccccc1)N[C@@H](C)C(=O)N1Cc2ccccc2C[C@H]1C(=O)O .
OUT: Compound NOT metabolized

IN: State the recorded Bacterial Biotransformation for this entry: c1ccc2[nH]c(-c3cscn3)nc2c1 [THIABENDAZOLE]
OUT: Compound NOT metabolized
